tested on: BCRP; test: in vitro; conditions: human, Caco-2, pH 7.4
readout-label: Papp A→B at 2 h, 5 µM (×10⁻⁶ cm/s)
The figure you give is taken to be in ×10⁻⁶ cm/s; do not add the unit.

Prompt: // returns reported Papp A→B at 2 h, 5 µM for input N#C[C@@]1(c2ccc3c(N)ncnn23)O[C@H](CO)[C@@H](O)[C@H]1O [GS-441524]
Response: 0.229

----------
test: Pharmacokinetics in Sprague Dawley rats; assay type: in vivo; details: male, rat, in vivo, po, 10 mg/kg
readout-label: bioavailability (%)
Express it in %; write the number only.

Prompt: Find the recorded bioavailability belonging to `N#C[C@@]1(c2ccc3c(N)ncnn23)O[C@H](CO)[C@@H](O)[C@H]1O` and report it.
Response: 33

----------
experiment: Pharmacokinetics in Beagle dogs; format: in vivo, dog; details: male, Beagle, dog, in vivo, iv, 2 mg/kg, Vdss
readout-label: Vd (L/kg)
// note: answer is a bare numeric in L/kg

Prompt: Please report the recorded Vd for `N#C[C@@]1(c2ccc3c(N)ncnn23)O[C@H](CO)[C@@H](O)[C@H]1O` .
Response: 0.9

----------
system: MDR1; experiment: in vitro; conditions: dog, MDCK-MDR1, pH 7.4, Papp A to B, MDCK-MDR1, 5 µM, 1 µM Valspodar
readout-label: Papp A→B at 2 h, 5 µM (×10⁻⁶ cm/s)
A number alone suffices; assume ×10⁻⁶ cm/s.

Prompt: // map N#C[C@@]1(c2ccc3c(N)ncnn23)O[C@H](CO)[C@@H](O)[C@H]1O [GS-441524] to recorded Papp A→B at 2 h, 5 µM (system: MDR1)
Response: 0.484

----------
tested on: MDR1; experiment: in vitro; details: dog, MDCK-MDR1, pH 7.4
readout-label: efflux ratio at 2 h
// keep it numeric: no unit symbol after the value

Prompt: I have this compound here, C[C@H]1O[C@@H](O[C@H]2[C@@H](O)C[C@H](O[C@H]3[C@@H](O)C[C@H](O[C@H]4CC[C@@]5(C)[C@H](CC[C@@H]6[C@@H]5C[C@@H](O)[C@]5(C)[C@@H](C7=CC(=O)OC7)CC[C@]65O)C4)O[C@@H]3C)O[C@@H]2C)C[C@H](O)[C@@H]1O [digoxin, reference compound] , and I need its recorded efflux ratio at 2 h.
Response: 110

----------
assay: Liver microsomal stability, CD-1 mouse; assay type: in vitro ADME; conditions: liver microsomes, pH 7.4, 0.5 mg/mL
readout-label: half-life at 1 µM (h)
Give just the numeric value; h need not be written.

Prompt: Looking for the measured half-life at 1 µM of `N#C[C@@]1(c2ccc3c(N)ncnn23)O[C@H](CO)[C@@H](O)[C@H]1O` , can you help?
Response: 1.3

----------
experiment: physchem; details: pH 5, aqueous buffer, thermodynamic from solid
readout-label: solubility thermodynamic (µg/mL)
Report the value in µg/mL with no unit label.

Prompt: Give its solubility thermodynamic value. Item: `N#C[C@@]1(c2ccc3c(N)ncnn23)O[C@H](CO)[C@@H](O)[C@H]1O`
Response: 52

----------
test: Pharmacokinetics in Sprague Dawley rats; format: in vivo; conditions: male, rat, in vivo, po, 30 mg/kg
readout-label: Cmax (ng/mL)
Note: unit ng/mL is implicit; provide only the numeric part.

Prompt: Fill in the blank: the reported Cmax of `N#C[C@@]1(c2ccc3c(N)ncnn23)O[C@H](CO)[C@@H](O)[C@H]1O` is ____.
Response: 326

----------
experiment: Pharmacokinetics in Sprague Dawley rats; type: in vivo; details: male, rat, in vivo, iv, 5 mg/kg
readout-label: clearance (mL/min/kg)
Supply the numeric figure in mL/min/kg, leaving out any unit text.

Prompt: Look up clearance for this molecule: `N#C[C@@]1(c2ccc3c(N)ncnn23)O[C@H](CO)[C@@H](O)[C@H]1O`
Response: 25

----------
experiment: physchem; settings: pH 7.4, aqueous buffer, thermodynamic from solid
readout-label: solubility thermodynamic

Prompt: So what's the measured solubility thermodynamic for this one? `N#C[C@@]1(c2ccc3c(N)ncnn23)O[C@H](CO)[C@@H](O)[C@H]1O`
Response: 47 µg/mL

----------
target: BCRP (Homo sapiens, UniProt Q9UNQ0); construct: host or cells: MDCK (BCRP-MDCK); assay: Bidirectional transport in MDCK-BCRP monolayers; type: in vitro ADME; conditions: dog, pH 7.4; MDCK-BCRP, 5 µM, no inhibitor
Sequence (Q9UNQ0 whole entry): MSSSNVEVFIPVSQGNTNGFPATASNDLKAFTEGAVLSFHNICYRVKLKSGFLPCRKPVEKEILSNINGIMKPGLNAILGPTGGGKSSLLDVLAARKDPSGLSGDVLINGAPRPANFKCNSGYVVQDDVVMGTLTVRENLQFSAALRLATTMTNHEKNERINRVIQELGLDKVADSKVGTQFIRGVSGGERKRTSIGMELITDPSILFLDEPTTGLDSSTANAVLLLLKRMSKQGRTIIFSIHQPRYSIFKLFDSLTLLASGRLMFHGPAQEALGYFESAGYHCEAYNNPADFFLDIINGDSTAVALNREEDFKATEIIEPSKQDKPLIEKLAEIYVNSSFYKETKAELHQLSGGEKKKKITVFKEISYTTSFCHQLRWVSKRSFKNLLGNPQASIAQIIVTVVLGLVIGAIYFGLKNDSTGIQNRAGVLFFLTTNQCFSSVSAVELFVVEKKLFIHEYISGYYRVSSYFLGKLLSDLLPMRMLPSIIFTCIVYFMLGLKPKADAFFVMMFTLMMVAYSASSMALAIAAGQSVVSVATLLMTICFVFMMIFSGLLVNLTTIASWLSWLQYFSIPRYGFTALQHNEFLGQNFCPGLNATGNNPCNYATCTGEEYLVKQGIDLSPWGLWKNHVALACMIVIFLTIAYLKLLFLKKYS
readout-label: Papp A→B at 2 h, 5 µM

Prompt: Papp A→B at 2 h, 5 µM for `N#C[C@@]1(c2ccc3c(N)ncnn23)O[C@H](CO)[C@@H](O)[C@H]1O` ?
Response: < 0.197 ×10⁻⁶ cm/s

----------
assay: Pharmacokinetics in C57BL/6 mice; format: in vivo, mouse; settings: male, C57BL/6, mouse, in vivo, iv, 5 mg/kg
readout-label: clearance (mL/min/kg)
Enter your answer as a number in mL/min/kg; do not include the unit.

Prompt: Entry `N#C[C@@]1(c2ccc3c(N)ncnn23)O[C@H](CO)[C@@H](O)[C@H]1O` has what clearance?
Response: 26

----------
test: in vitro; conditions: human, Caco-2, pH 7.4
readout-label: Papp A→B at 2 h, 5 µM (×10⁻⁶ cm/s)
Give the value, in units of ×10⁻⁶ cm/s, as a plain number.

Prompt: What does the data say about its Papp A→B at 2 h, 5 µM? Entry: `N#C[C@@]1(c2ccc3c(N)ncnn23)O[C@H](CO)[C@@H](O)[C@H]1O`
Response: 0.099

----------
assay: Pharmacokinetics in Beagle dogs; type: in vivo, dog; conditions: male, Beagle, dog, plasma, iv, 2 mg/kg, IV 2 mg/kg
readout-label: half-life

Prompt: GET /values?readout=half-life&item= `N#C[C@@]1(c2ccc3c(N)ncnn23)O[C@H](CO)[C@@H](O)[C@H]1O`
Response: ~4 h

----------
assay: Pharmacokinetics in Beagle dogs; assay type: in vivo, dog; details: male, beagle, in vivo; Dog, PO 5 mg/kg
readout-label: AUC(0-inf) (ng·h/mL)
Just the number in ng·h/mL, nothing appended.

Prompt: If you can, please state the reported AUC(0-inf) value of `N#C[C@@]1(c2ccc3c(N)ncnn23)O[C@H](CO)[C@@H](O)[C@H]1O` .
Response: 19000

----------
assay: physchem; details: pH 2, aqueous buffer, thermodynamic from solid
readout-label: solubility thermodynamic

Prompt: May I ask what solubility thermodynamic has been recorded for N#C[C@@]1(c2ccc3c(N)ncnn23)O[C@H](CO)[C@@H](O)[C@H]1O [GS-441524] ?
Response: > 1000 µg/mL

----------
experiment: Pharmacokinetics in Sprague Dawley rats; assay type: in vivo; details: male, rat, in vivo, po, 100 mg/kg
readout-label: bioavailability (%)
A number alone suffices; assume %.

Prompt: Return reported bioavailability; argument: N#C[C@@]1(c2ccc3c(N)ncnn23)O[C@H](CO)[C@@H](O)[C@H]1O [GS-441524]
Response: 15

----------
test: physchem; conditions: pH 5
readout-label: solubility

Prompt: Bench note: what solubility did `N#C[C@@]1(c2ccc3c(N)ncnn23)O[C@H](CO)[C@@H](O)[C@H]1O` show?
Response: 35 to 52 µg/mL

----------
test: in vitro; conditions: human, Caco-2, pH 7.4
readout-label: Papp B→A at 2 h, 5 µM (×10⁻⁶ cm/s)
State just the number; it will be interpreted in ×10⁻⁶ cm/s.

Prompt: // returns reported Papp B→A at 2 h, 5 µM for input `N#C[C@@]1(c2ccc3c(N)ncnn23)O[C@H](CO)[C@@H](O)[C@H]1O`
Response: 0.971

----------
experiment: Pharmacokinetics in Sprague Dawley rats; type: in vivo; details: male, rat, in vivo, po, 10 mg/kg
readout-label: Tmax
Could you write the number and then its unit?

Prompt: Param item = `N#C[C@@]1(c2ccc3c(N)ncnn23)O[C@H](CO)[C@@H](O)[C@H]1O` ; retrieve measured Tmax.
Response: 3.8 h

----------
assay: Pharmacokinetics in Sprague Dawley rats; format: in vivo; details: male, rat, in vivo, iv, 1 mg/kg
readout-label: Vd

Prompt: Need Vd, item `N#C[C@@]1(c2ccc3c(N)ncnn23)O[C@H](CO)[C@@H](O)[C@H]1O`
Response: 2.6 L/kg

----------
experiment: Pharmacokinetics in Sprague Dawley rats; format: in vivo; conditions: male, rat, plasma, po, 100 mg/kg, Rat, PO 10, 30 and 100 mg/kg, read-out: Half-life (t1/2)
readout-label: half-life

Prompt: Tell me the measured half-life of `N#C[C@@]1(c2ccc3c(N)ncnn23)O[C@H](CO)[C@@H](O)[C@H]1O` , please.
Response: 3.4 to 4.2 h

----------
experiment: Pharmacokinetics in Cynomolgus monkeys; format: in vivo; conditions: male, cynomolgus monkey, in vivo, iv, 2 mg/kg
readout-label: Vd (L/kg)
The answer is to be given in L/kg; state only the numeric part.

Prompt: Reported Vd, compound N#C[C@@]1(c2ccc3c(N)ncnn23)O[C@H](CO)[C@@H](O)[C@H]1O [GS-441524] : ____
Response: 1.1
